# Tested on: T. vaginalis PNP
# test.name: Substrate cleavage by wild-type Tv-PNP (HPLC)
# Format: biochemical, Trichomonas vaginalis
# test.conditions: 100 micromolar substrate, HPLC separation of base from nucleoside
Hi there, I'd appreciate the recorded rate of enzymatic cleavage by T. vaginalis PNP for every entry that follows.

Quick note, rate of enzymatic cleavage by T. vaginalis PNP for Nc1nc(Cl)nc2c1ncn2[C@H]1C[C@H](O)[C@@H](CO)O1 [2-Cl-2′-deoxyadenosine (β-L), 2-Cl-2′-deoxyadenosine] landed at <8 nanomoles per milligrams per hour

rate of enzymatic cleavage by T. vaginalis PNP recorded for this compound, Nc1nc(Cl)nc2c1ncn2[C@H]1C[C@H](O)[C@@H](CO)O1 [2-Cl-2′-deoxyadenosine (α-L), 2-Cl-2′-deoxyadenosine] , is <8 nanomoles per milligrams per hour

Form: compound = `Cc1ncnc2c1ncn2[C@@H]1O[C@H]([C@@H](C)O)[C@@H](O)[C@H]1O` ; rate of enzymatic cleavage by T. vaginalis PNP = 223 nanomoles per milligrams per hour

So, `C[C@H]1O[C@@H](n2cnc3c(N)ncnc32)[C@H](O)[C@@H]1O` ? Its rate of enzymatic cleavage by T. vaginalis PNP was 50,000 nanomoles per milligrams per hour

Documented rate of enzymatic cleavage by T. vaginalis PNP of `CO[C@@H]1[C@H](O)[C@@H](CO)O[C@H]1n1cnc2c(N)ncnc21` : <10 nanomoles per milligrams per hour

response.value for `Nc1ncnc2c1ncn2[C@H]1CC[C@@H](CO)O1` (field: rate of enzymatic cleavage by T. vaginalis PNP) = 640 nanomoles per milligrams per hour

// recorded rate of enzymatic cleavage by T. vaginalis PNP for `Cc1ncnc2c1ncn2[C@@H]1O[C@@H](CI)[C@@H](O)[C@H]1O` : <8 nanomoles per milligrams per hour

Looking up `Nc1ncnc2c1ncn2[C@@H]1O[C@H](CO)[C@@H](O)[C@@H]1O` , I found its rate of enzymatic cleavage by T. vaginalis PNP recorded as 38,000 nanomoles per milligrams per hour

rate of enzymatic cleavage by T. vaginalis PNP in this record for `Nc1nc2c(ncn2[C@@H]2O[C@H](CO)[C@@H](O)[C@@H]2O)c(=O)[nH]1` : 16 nanomoles per milligrams per hour

// recorded rate of enzymatic cleavage by T. vaginalis PNP for `Cc1ncnc2c1ncn2[C@@H]1O[C@@H](C)[C@@H](O)[C@H]1O` : 246 nanomoles per milligrams per hour

The compound `Cc1ncnc2ncn([C@H]3C[C@H](O)[C@H](CO)O3)c12` showed rate of enzymatic cleavage by T. vaginalis PNP equal to <8 nanomoles per milligrams per hour

Item: `O=c1[nH]cnc2c1ncn2[C@@H]1O[C@H](CO)[C@@H](O)[C@@H]1O` | rate of enzymatic cleavage by T. vaginalis PNP: 48 nanomoles per milligrams per hour

Record `C[C@H]1O[C@@H](n2cnc3c(N)nc(F)nc32)[C@H](O)[C@@H]1O` . Reported rate of enzymatic cleavage by T. vaginalis PNP: 50,000 nanomoles per milligrams per hour
